Please respond with reported protein stability index for every item in the list.
B1: ADD1 (parent)
chain: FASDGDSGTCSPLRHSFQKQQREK

- Variants of: B1
- TEST PROTOCOL: protein stability index of a GFP-peptide fusion (GPS, HEK-293T) (PSI 1-6); higher = more stable;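 note: lentivirally expressed fusions sorted by FACS into six bins by GFP to DsRed ratio, PSI derived from sequencing read proportions per bin multiplied by bin number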
- TEST SETTINGS: c terminus: a fixed tail appended
Reply briefly: the number, and no unit.

Task item: Find the recorded protein stability index belonging to FASDGDSGTCSPLWHSFQKQQREK [R14W] and report it.
Reply: 4.02

Task item: Find the recorded protein stability index belonging to FATDGDSGTCSPLRHSFQKQQREK [S3T] and report it.
Reply: 3.99

Task item: Find the recorded protein stability index belonging to FASDGDSGTHSPLRHSFQKQQREK [C10H] and report it.
Reply: 4.01

Task item: Find the recorded protein stability index belonging to FASDGDSGTCSHLRHSFQKQQREK [P12H] and report it.
Reply: 3.91

Task item: Find the recorded protein stability index belonging to FASDGDSGTCSPLRHSRQKQQREK [F17R] and report it.
Reply: 4.1

Task item: Find the recorded protein stability index belonging to FASDGDSGTCSPLGHSFQKQQREK [R14G] and report it.
Reply: 4.11
